# method-notes: viability loss in Ba/F3 EpoR-JAK2V617F cells – cell-based, luminescence, JAK2V617F inhibitor project, primary screen (AID 1446);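 note: cytokine-independent growth of Ba/F3 cells driven by EpoR plus mutant JAK2; 0% = DMSO-treated cells and 100% = JAK inhibitor I control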
# protocol-conditions: ATP luminescence, at 5.6 µM, stronger effect = higher value
Hit rate of the full screen: of about 220,000 compounds, about 2,400 (1.1%) were called active. This is one part of a sample in which actives are shown more often than they occur.
readout-label: inhibition (%)
Supply the numeric figure in %, leaving out any unit text.

{"columns": ["compound", "inhibition, %"],
 "data": [
  ["COc1ccc(CCNC(=O)C(=O)NCC2CCNCC2)cc1OC", -3.6],
  ["COc1ccc2nc(Nc3nc(-c4cc5ccccc5oc4=O)cs3)sc2c1", -2.4],
  ["O=C(Cn1nc(CNc2ccc(Cl)cc2)[n+]2c1CCCCC2)c1ccc(Cl)cc1", 1.65]
]}

Ask | Give the reported inhibition for this compound. CC(C)CN1CCNC(=O)C1CC(=O)N(C)CC1CCOCC1 (stereo not drawn)
Reply | -1.14

Ask | Give the reported inhibition for this compound. Cc1onc(C(=O)NN)c1-c1csc(COc2ccccc2)n1
Reply | 3.97
